Reported residual activity values are given for each entry in this list.
- TARGET_DESC: Maternal embryonic leucine zipper kinase (Homo sapiens) (UniProt Q14680)
- Sequence (Q14680 whole entry, looked up): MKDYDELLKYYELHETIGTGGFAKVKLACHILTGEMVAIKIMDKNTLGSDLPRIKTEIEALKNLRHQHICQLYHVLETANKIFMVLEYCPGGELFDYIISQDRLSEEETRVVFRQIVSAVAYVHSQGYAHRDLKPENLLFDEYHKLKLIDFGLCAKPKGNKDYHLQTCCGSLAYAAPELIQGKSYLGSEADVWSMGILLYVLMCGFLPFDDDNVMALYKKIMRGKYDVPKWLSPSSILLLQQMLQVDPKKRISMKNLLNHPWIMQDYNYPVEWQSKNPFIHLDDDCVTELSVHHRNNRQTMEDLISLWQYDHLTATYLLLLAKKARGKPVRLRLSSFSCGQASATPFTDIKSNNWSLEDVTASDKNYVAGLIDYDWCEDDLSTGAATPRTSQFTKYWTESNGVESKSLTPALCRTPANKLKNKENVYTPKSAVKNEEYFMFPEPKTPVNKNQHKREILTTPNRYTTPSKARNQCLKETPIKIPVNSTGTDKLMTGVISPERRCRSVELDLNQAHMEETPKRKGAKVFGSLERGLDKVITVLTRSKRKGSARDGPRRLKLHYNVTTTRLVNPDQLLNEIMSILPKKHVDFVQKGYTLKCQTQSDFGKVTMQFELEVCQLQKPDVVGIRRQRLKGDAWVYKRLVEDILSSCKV
- TEST_CONTEXT: at 1 µM
Answer in %, number only, no unit symbol.

| STRUCTURE_STRING | TARGET_DESC | READOUT_KIND | VAL |
| --- | --- | --- | --- |
| CCCCc1c(-c2ccc(OC)cc2)[nH]c2nccnc12 | Maternal embryonic leucine zipper kinase (Homo sapiens) (UniProt Q14680) | residual activity | 74 |
| CCN(CC)CCNC(=O)c1c(C)[nH]c(/C=C2\C(=O)Nc3ccc(Cl)cc32)c1C | Maternal embryonic leucine zipper kinase (Homo sapiens) (UniProt Q14680) | residual activity | 8 |
| N#Cc1c(NC(=O)c2cccc3ccccc23)sc2c1CCCC2 | Maternal embryonic leucine zipper kinase (Homo sapiens) (UniProt Q14680) | residual activity | 87 |

Lab book: residual activity of O=C1Cc2c([nH]c3ccc(Br)cc23)-c2ccccc2N1 noted as 89

* * *

The compounds listed here are annotated with their residual activity.
- TARGET_DESC: SRSF protein kinase 2 (Homo sapiens) (UniProt P78362)
- Sequence (P78362 whole entry, looked up): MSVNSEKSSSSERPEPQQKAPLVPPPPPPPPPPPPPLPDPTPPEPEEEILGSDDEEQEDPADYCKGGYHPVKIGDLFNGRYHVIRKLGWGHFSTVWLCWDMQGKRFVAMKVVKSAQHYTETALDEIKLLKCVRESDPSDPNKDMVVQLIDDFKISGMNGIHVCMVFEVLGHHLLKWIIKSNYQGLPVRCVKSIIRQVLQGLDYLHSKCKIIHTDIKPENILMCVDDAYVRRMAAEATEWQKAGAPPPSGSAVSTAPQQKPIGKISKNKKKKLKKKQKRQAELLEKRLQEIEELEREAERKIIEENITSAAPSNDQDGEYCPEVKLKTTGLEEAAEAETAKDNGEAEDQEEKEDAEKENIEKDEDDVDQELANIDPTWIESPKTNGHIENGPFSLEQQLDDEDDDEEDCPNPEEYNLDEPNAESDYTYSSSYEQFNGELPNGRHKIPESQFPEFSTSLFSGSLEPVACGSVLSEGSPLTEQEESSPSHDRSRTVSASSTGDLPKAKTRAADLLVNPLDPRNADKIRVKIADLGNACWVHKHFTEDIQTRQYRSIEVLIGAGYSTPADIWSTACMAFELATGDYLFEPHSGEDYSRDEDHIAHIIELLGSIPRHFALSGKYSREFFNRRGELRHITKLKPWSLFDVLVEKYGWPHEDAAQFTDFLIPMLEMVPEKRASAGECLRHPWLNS
- TEST_CONTEXT: at 1 µM
Write down the numeric answer in % and omit the unit.

Solved cases below.
| STRUCTURE_STRING | TARGET_DESC | residual activity (%) |
| --- | --- | --- |
| NC(=O)Nc1sc(-c2ccc(F)cc2)cc1C(N)=O | SRSF protein kinase 2 (Homo sapiens) (UniProt P78362) | 102 |
| CCN(CC)CCNC(=O)c1c(C)[nH]c(/C=C2\C(=O)Nc3ccc(Cl)cc32)c1C | SRSF protein kinase 2 (Homo sapiens) (UniProt P78362) | 98 |
| CCCC(=O)Oc1ccc2[nH]c(C(=O)c3cc4ccccc4[nH]3)cc2c1 | SRSF protein kinase 2 (Homo sapiens) (UniProt P78362) | 103 |

Just so you know, measured residual activity for CCCCc1c(-c2ccc(OC)cc2)[nH]c2nccnc12 came out at 90

* * *

- TARGET_DESC: Serine/threonine-protein kinase pim-3 (Homo sapiens)
- TEST_CONTEXT: at 10 µM
READOUT_KIND: residual activity (%)
Number only, in %; omit the unit.

| STRUCTURE_STRING | residual activity (%) |
| --- | --- |
| O=C1C(Cl)=C(N2C(=O)CCC2=O)C(=O)c2ccccc21 | 84 |
| CCCC(=O)Oc1ccc2[nH]c(C(=O)c3cc4ccccc4[nH]3)cc2c1 | 96 |
| COc1cc2ncnc(Nc3cccc(Cl)c3)c2cc1OC | 101 |

Now consider the entry below.
# residual activity of COc1ccc(Cl)cc1NC(=O)Nc1cc(C)nc2ccccc12 = 99

* * *

- TARGET_DESC: Ephrin type-A receptor 5 (Homo sapiens) (UniProt P54756)
- Sequence (P54756 whole entry): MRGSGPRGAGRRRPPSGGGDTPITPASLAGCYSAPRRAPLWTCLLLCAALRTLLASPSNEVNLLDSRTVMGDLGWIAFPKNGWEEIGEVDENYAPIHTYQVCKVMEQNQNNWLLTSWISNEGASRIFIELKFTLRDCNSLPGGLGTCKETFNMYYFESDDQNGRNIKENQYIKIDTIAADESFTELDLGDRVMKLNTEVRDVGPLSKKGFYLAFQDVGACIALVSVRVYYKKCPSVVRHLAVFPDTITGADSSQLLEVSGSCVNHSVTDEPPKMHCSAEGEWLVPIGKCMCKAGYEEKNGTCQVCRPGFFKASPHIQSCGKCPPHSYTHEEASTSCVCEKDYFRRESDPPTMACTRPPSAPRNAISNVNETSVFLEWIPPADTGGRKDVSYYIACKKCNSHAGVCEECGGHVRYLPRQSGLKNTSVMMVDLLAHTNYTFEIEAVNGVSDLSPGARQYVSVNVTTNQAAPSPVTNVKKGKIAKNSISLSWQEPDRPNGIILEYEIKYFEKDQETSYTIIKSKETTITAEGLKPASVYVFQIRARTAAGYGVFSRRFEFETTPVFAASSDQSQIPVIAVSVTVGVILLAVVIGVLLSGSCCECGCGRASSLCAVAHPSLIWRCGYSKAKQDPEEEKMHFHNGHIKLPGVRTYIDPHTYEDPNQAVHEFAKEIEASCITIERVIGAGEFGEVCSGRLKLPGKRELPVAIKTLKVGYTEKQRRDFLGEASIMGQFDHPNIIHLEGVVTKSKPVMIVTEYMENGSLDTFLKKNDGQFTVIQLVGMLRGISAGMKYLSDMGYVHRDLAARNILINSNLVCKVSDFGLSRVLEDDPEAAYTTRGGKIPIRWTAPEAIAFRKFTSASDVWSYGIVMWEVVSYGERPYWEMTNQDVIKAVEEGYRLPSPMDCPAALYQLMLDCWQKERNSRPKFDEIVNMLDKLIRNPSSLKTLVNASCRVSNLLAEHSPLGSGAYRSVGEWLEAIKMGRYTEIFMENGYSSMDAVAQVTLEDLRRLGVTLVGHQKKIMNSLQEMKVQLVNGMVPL
- TEST_CONTEXT: at 10 µM
Consider the following molecules and their measured residual activity readings.
Hey, just the number and the unit after it is fine.

Recorded residual activity for Nc1ncnc2c1cnn2-c1ccccc1 on Ephrin type-A receptor 5 (Homo sapiens) (UniProt P54756) was 88%

# value of residual activity, Ephrin type-A receptor 5 (Homo sapiens) (UniProt P54756), item O=C(NC(NC(=S)Nc1ccc(F)c([N+](=O)[O-])c1)C(Cl)(Cl)Cl)C(c1ccccc1)c1ccccc1 (stereo not drawn) = 91%

Ephrin type-A receptor 5 (Homo sapiens) (UniProt P54756) assay, molecule Fc1ccc(-c2nc3n(c2-c2ccncc2)CCS3)cc1 , recorded residual activity = 89%

* * *

# residual activity values compiled below
- TARGET_DESC: Serine/threonine-protein kinase D1 (Homo sapiens) (UniProt Q15139)
- Sequence (Q15139 whole entry): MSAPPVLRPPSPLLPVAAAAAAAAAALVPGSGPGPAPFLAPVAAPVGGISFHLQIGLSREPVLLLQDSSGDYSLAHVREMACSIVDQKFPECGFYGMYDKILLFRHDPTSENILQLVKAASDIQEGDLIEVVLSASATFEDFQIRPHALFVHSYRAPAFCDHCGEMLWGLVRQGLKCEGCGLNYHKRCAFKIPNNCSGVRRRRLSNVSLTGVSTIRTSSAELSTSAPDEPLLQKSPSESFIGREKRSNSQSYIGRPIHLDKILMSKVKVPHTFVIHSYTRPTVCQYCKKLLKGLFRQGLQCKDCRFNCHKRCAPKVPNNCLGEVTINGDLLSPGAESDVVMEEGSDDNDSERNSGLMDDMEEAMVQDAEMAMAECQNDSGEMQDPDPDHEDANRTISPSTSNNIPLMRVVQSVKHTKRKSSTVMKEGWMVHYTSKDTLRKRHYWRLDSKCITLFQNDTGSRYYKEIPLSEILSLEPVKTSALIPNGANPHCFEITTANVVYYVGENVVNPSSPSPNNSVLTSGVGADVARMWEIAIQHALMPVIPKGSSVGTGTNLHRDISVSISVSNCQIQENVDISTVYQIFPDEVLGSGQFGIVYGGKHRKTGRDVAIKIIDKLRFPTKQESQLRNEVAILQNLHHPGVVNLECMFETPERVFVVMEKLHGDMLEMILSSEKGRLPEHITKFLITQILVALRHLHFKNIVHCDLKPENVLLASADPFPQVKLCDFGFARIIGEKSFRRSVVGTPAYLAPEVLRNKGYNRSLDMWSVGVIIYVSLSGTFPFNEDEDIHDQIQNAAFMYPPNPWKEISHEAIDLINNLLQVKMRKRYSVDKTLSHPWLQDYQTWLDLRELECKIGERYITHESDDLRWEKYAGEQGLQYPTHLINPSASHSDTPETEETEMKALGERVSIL
- TEST_CONTEXT: at 10 µM

Example compounds with recorded residual activity:
| STRUCTURE_STRING | residual activity |
| --- | --- |
| Nc1n[nH]c2nc3ccccc3nc12 | 69% |
| CCOc1nc(NC(=O)Cc2cc(OC)ccc2OC)cc(N)c1C#N | 54% |
| O=C(c1cc2cc(O)ccc2[nH]1)c1cc2cc(O)ccc2[nH]1 | 23% |

Next, consider the following compound.
Summary for this compound, O=C1Cc2c([nH]c3ccc(Br)cc23)-c2ccccc2N1 : residual activity is 80%

* * *

Measured residual activity, listed per entry.
- TARGET_DESC: Serine/threonine-protein kinase WNK3 (Homo sapiens) (UniProt Q9BYP7);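 also: remaining kinase activity expressed versus control, assayed in 8 mM MOPS buffer pH 7.0 with 0.2 mM EDTA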
- TEST_CONTEXT: at 1 µM
- Description: Millipore: Percentage of residual kinase activity of WNK3 at 1uM relative to control. Control inhibitor: Phosphoric acid* at 0.3uM. Buffer: 8 mM MOPS pH 7.0, 0.2 mM EDTA
Numeric only. Scale: %

| STRUCTURE_STRING | READOUT_KIND | VAL |
| --- | --- | --- |
| CC(C)(C)c1nc2c3ccc(F)cc3c3c(=O)[nH]ccc3c2[nH]1 | residual activity | 101 |
| Cn1sc(=O)n(Cc2ccccc2)c1=O | residual activity | 99 |
| Oc1cccc(-c2nc(N3CCOCC3)c3oc4ncccc4c3n2)c1 | residual activity | 119 |
| COc1cc2nccc(Oc3ccc(NC(=O)Nc4cc(C)on4)c(Cl)c3)c2cc1OC | residual activity | 58 |

Reported residual activity ( c1ccc(-c2cnc(Nc3ccc(OCCN4CCCC4)cc3)s2)cc1 ) = 114

* * *

- TARGET_DESC: Serine/threonine-protein kinase PAK 6 (Homo sapiens) (UniProt Q9NQU5)
- TEST_CONTEXT: at 1 µM
READOUT_KIND: residual activity (%)
I only need the number, in %, no unit after it.

Illustrative cases are given below, each with its answer.
| COMPOUND | RESULT_UNITS | VAL |
| --- | --- | --- |
| CSc1nc(-c2ccc(F)cc2)c(-c2ccnc(NC(C)c3ccccc3)c2)[nH]1 (centres undefined) | % | 96 |
| CCN(CC)CCNC(=O)c1c(C)[nH]c(/C=C2\C(=O)Nc3ccc(Cl)cc32)c1C | % | 73 |
| NCCNc1ncc(C(N)=O)c(Nc2cccc(C(F)(F)F)c2)n1 | % | 63 |
| O=C(O)/C=C/c1cc(Br)c(Br)c(Br)c1Br | % | 102 |
| CN(C)S(=O)(=O)c1ccc2c(c1)/C(=C/c1cc3c([nH]1)CCCC3)C(=O)N2 | % | 76 |
| COc1cc2c(cc1OC)-c1n[nH]c(Nc3cccc(F)c3)c1C2 | % | 98 |
| CC(C)(C)n1nc(Cc2cccc3ccccc23)c2c(N)ncnc21 | % | 98 |
| Nc1ncnc2c1cnn2-c1ccccc1 | % | 92 |

Noted residual activity for COc1cc2nccc(Oc3ccc(NC(=O)Nc4cc(C)on4)c(Cl)c3)c2cc1OC , tested on Serine/threonine-protein kinase PAK 6 (Homo sapiens) (UniProt Q9NQU5): 104

* * *

- TARGET_DESC: Serine/threonine-protein kinase Nek3 (Homo sapiens)
- TEST_CONTEXT: at 10 µM
- Description: Millipore: Percentage of residual kinase activity of NEK3 at 10uM relative to control. Control inhibitor: Phosphoric acid* at 0.3uM. Buffer: 8 mM MOPS pH 7.0, 0.2 mM EDTA
Rule: residual activity under 80% gives 0 (no), otherwise 1 (yes).

Known results for compounds:
| STRUCTURE_STRING | ANSWER_LABEL |
| --- | --- |
| O=C1C(Cl)=C(N2C(=O)CCC2=O)C(=O)c2ccccc21 | 1 (yes) |
| NC(=O)Nc1sc(-c2ccc(F)cc2)cc1C(N)=O | 0 (no) |
| Nc1ncnc2c1cnn2-c1ccccc1 | 1 (yes) |
| O=c1cc(N2CCNCC2)oc2c(-c3ccccc3)cccc12 | 0 (no) |

Continue with the next compound.
Dear colleague, could you confirm whether CC(C)[C@H](CO)Nc1nc(Nc2cc(N)cc(Cl)c2)c2ncn(C(C)C)c2n1 has residual activity at or above 80%?
0 (no)

* * *

- TARGET_DESC: Protein kinase C eta type (Homo sapiens)
- TEST_CONTEXT: at 10 µM
READOUT_KIND: residual activity (%)
Just the number in %, nothing appended.

Example entries and their recorded answers appear below.
| STRUCTURE_STRING | residual activity [%] |
| --- | --- |
| O=S(=O)(c1cccc2cnccc12)N1CCCNCC1 | 26 |
| Nc1ncnc2[nH]nc(Nc3ccc(F)cc3)c12 | 104 |
| O=C1NC(=O)C(c2c[nH]c3ccccc23)=C1c1c[nH]c2ccccc12 | 17 |
| O=C(c1cc2cc(O)ccc2[nH]1)c1cc2cc(O)ccc2[nH]1 | 77 |
| O=c1c(-c2ccc(F)cc2)c(-c2ccncc2)[nH]n1-c1ccc(Cl)cc1 | 72 |

# context switch: different compound, same residual activity
Please fill in: residual activity reported for Nc1ncnc2c1c(-c1ccc(Oc3ccccc3)cc1)cn2C1CCCC1 = 67

* * *

- TARGET_DESC: Tyrosine-protein kinase ABL2 (Homo sapiens) (UniProt P42684)
- Sequence (P42684 whole entry): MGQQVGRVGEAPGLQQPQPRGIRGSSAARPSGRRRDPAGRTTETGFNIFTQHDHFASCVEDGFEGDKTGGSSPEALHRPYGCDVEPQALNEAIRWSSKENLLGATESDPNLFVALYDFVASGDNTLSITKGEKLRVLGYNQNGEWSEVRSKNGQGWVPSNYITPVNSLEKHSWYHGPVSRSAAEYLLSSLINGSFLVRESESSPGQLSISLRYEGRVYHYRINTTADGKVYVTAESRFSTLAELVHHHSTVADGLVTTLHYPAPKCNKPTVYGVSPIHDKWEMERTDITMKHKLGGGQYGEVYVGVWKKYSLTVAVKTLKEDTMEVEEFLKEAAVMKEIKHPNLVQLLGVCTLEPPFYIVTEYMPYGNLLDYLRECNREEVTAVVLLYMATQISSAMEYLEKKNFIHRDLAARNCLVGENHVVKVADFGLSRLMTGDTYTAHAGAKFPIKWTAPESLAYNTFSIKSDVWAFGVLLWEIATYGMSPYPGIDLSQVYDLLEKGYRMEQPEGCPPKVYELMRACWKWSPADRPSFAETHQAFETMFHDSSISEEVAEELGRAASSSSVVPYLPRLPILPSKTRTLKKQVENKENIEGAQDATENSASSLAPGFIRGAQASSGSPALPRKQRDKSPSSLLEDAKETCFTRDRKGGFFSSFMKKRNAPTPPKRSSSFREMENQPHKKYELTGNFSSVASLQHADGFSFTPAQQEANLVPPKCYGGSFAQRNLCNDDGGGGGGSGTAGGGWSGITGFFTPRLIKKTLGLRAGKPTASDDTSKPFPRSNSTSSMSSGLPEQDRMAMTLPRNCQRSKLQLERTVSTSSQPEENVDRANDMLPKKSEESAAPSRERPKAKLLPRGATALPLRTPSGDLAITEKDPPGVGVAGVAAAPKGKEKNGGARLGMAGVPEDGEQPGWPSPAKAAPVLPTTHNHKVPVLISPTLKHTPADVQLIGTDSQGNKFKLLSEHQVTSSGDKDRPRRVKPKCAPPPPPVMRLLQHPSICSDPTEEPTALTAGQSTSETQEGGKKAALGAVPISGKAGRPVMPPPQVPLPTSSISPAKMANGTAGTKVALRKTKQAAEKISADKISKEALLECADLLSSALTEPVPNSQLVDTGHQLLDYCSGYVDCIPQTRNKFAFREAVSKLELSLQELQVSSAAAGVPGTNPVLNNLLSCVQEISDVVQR
- TEST_CONTEXT: at 10 µM
Catalogue of molecules with associated residual activity

# count of solved cases: 5
| MOLECULE | residual activity |
| --- | --- |
| O=C(O)/C=C/c1cc(Br)c(Br)c(Br)c1Br | 53% |
| CN(C)S(=O)(=O)c1ccc2c(c1)/C(=C/c1cc3c([nH]1)CCCC3)C(=O)N2 | 75% |
| COc1ccc2c(c1)c(C1=C(c3c[nH]c4ccccc34)C(=O)NC1=O)cn2CCCN(C)C | 74% |
| Nc1ncnc2[nH]nc(Nc3ccc(F)cc3)c12 | 30% |
| NC(=O)c1ccc(-c2nc(-c3ccc4c(c3)OCCO4)c(-c3ccccn3)[nH]2)cc1 | 83% |

Noted for COc1cc2nccc(Oc3ccc(NC(=O)Nc4cc(C)on4)c(Cl)c3)c2cc1OC : its residual activity reads -1%

For O=C(NC(NC(=S)Nc1ccc(F)c([N+](=O)[O-])c1)C(Cl)(Cl)Cl)C(c1ccccc1)c1ccccc1 (configuration not stated) the molecule record lists residual activity as 93%
